Provenance of the data: PubChem BioAssay (NCI)

test system: RPMI-8226 leukemia; assay: NCI tumour cell line growth inhibition, 48 h
TEST_READOUT: TGI

# MOLECULE, TESTED_ON, VALUE
data = [
    ("CCCCCCCCCCCCCCCC(=O)N[C@H](/C=C/[C@H](O)CCCCCCCCCCCCC)CO", "RPMI-8226 leukemia", "> 100 µM"),
    ("CC(=O)[CH-]C(=O)c1ccccc1.CC(=O)[CH-]C(=O)c1ccccc1.CC[C@H](/C=C/C(C)[C@H]1CCC2[C@@H]3CC=C4C[C@@H]([O-])CC[C@]4(C)C3CC[C@@]21C)C(C)C.CC[O-].[Ti+4] (stereo partly drawn)", "RPMI-8226 leukemia", "> 100 µM"),
    ("CN(C)CC1CCC/C(=C\\c2ccc(OC(=O)/C=C/c3ccccc3)cc2)C1=O (stereo not drawn)", "RPMI-8226 leukemia", "6.88 µM"),
    ("O=[N+]1ON=C(c2ccccc2)C1=C1C(c2c(-c3ccccc3)no[n+]2[O-])=NON1[O-]", "RPMI-8226 leukemia", "> 100 µM"),
    ("COC(CC1(/C=C/O[Si](C(C)C)(C(C)C)C(C)C)C(=O)N(COCC[Si](C)(C)C)c2ccccc21)OC (stereo not drawn)", "RPMI-8226 leukemia", "> 100 µM"),
]

Req: Looking for the measured TGI of COC(=O)C1=Cc2cc(OC)c(OC)cc2[C@H](c2ccc(OC)c(OC)c2)C1C(=O)OC (stereo partly drawn) , can you help?
Resp: > 100 µM

Req: Requested read-out: TGI. Entry: Nc1ccccc1NC(=O)c1ccc(CN2CCC/C(=C\c3ccccn3)C2=O)cc1
Resp: 5.66 µM

Req: Consider the molecule O=C(O)C1CCC(=O)N1S(=O)(=O)c1ccccc1 (stereo not drawn) and give its measured TGI.
Resp: > 100 µM

---

system: MCF7 breast; assay: NCI tumour cell line growth inhibition, 48 h
TEST_READOUT: TGI (µM)
Give just the number in µM; leave the unit off.

See these solved cases before continuing.
# COMPOUND, TGI (µM)
rows = [
    ("CCCC[n+]1c(/C=C\\c2c(OC)cc(OC)cc2OC)ccc2ccccc21", 4.73),
    ("Cc1ccc(Nc2[nH]c(=O)[nH]c(=O)c2C)cc1Cl", 59.7),
    ("COC(=O)c1ccc(NCc2c(O)ccc(O)c2Br)cc1Cl", 32.2),
]

Req: // TGI lookup, key: CC(C)(CCN=C(N)Nc1ccccn1)c1ccc(C(F)(F)F)cc1
Resp: 27.4

Req: Entry Cc1cc(C)c2c(c1)C1=NCCN1C2(O)c1ccc(Cl)cc1 (stereo unspecified) : reported TGI = ?
Resp: 34.3

Req: Item under review: COc1cc2c(cc1OC)CN1CCCc3cc(OC)c(OC)cc3C1C2 (stereo unspecified) . Reported TGI?
Resp: 95.2

Req: # input compound: COc1ccc(/C=C/C(=N/NC(=O)N/N=C(/C=C/c2ccc(OC)cc2)C(C)(C)CN2CCCCC2)C(C)(C)CN2CCCCC2)cc1 ; wanted: its TGI
Resp: 6.26

Req: Requested field: TGI. Item: O=C1C(Cl)C2(CC(/C=C/c3ccccc3O)=NN2c2cccc(S(=O)(=O)O)c2)N1c1nc2ccccc2s1 (stereo unspecified)
Resp: 31.8

Req: Suppose we examine the compound O=[N+]1ON=C(c2ccccc2)C1=C1C(c2c(-c3ccccc3)no[n+]2[O-])=NON1[O-] ; what TGI value has been reported?
Resp: 7.51

Req: TGI for CCN(Cc1ccccc1Cl)c1ccc(CO)c(Cl)c1 ?
Resp: 12.1

Req: Record request: TGI value, item Cc1cc(C)nc(SCC(=O)OC2CC(C)CCC2C(C)C)n1 (stereo unspecified)
Resp: 50.7

---

system: UACC-257 melanoma; experiment: NCI tumour cell line growth inhibition, 48 h
TEST_READOUT: TGI

Worked cases, TGI given:
# MOLECULE, TESTED_ON, TGI
records = [
    ("C1COCCOCCOCCOCCOCCO1.[Cl][Sn]([Cl])([c]1ccccc1)[c]1ccccc1", "UACC-257 melanoma", "4.63 µM"),
    ("CCOC(=O)C1C(c2ccc(O)c(OC)c2)c2c([nH][nH]c2=O)CC1(C)O (centres undefined)", "UACC-257 melanoma", "> 100 µM"),
    ("N#CCCN(CCC#N)c1ccc(C(N=Nc2ccccc2)=Nc2ccc(Cl)cc2)cc1", "UACC-257 melanoma", "> 100 µM"),
    ("CC(=O)OC1CC2(C)OC(Cc3ccccc32)O1 (centres undefined)", "UACC-257 melanoma", "> 100 µM"),
]

Req: Recorded TGI for CCOC(=O)C1=c2[nH]c3cccc4cccc(c43)n2C(=O)CC1c1ccccc1 (centres undefined) , please?
Resp: > 100 µM

Req: Which value of TGI has been reported for c1cc(CSSCc2ccncc2)ccn1 in the records?
Resp: > 100 µM

Req: Could you tell me which TGI is on file for C=C1C(=O)O[C@@H]2[C@H]1CCC(C)=C1C=CC(=O)[C@]12C ?
Resp: 27.1 µM

Req: What measured TGI goes with COC(=O)c1ccc(NCc2c(O)ccc(O)c2Br)cc1Cl ?
Resp: 83.8 µM

Req: TGI lookup needed for O=C(O)CCNC(=O)c1cc(N(CCBr)CCBr)c([N+](=O)[O-])cc1[N+](=O)[O-] , thanks.
Resp: > 100 µM

---

test system: OVCAR-8 ovarian
I would appreciate it if you answered using one of these outcomes: True = active, False = inactive

These solved cases illustrate the format of a correct answer.
# MOL_SMILES, ASSIGNED_LABEL
rows = [
    ("COC(=O)c1ccc2c(c1)C(=O)c1c-2n(C)c(=O)c2cc(OC)c(OC)cc12", "False"),
    ("CCCCCCCCCCCCCCCC(=O)N[C@H](/C=C/[C@H](O)CCCCCCCCCCCCC)CO", "False"),
]

Shifting focus to the compound that follows.
Req: Status in this test for Cc1cccc2nc3cccc(C(=O)NCCNCCNCCNC(=O)c4cccc5nc6cccc(C)c6nc45)c3nc12 ?
Resp: True

---

Consider the following compounds and their measured GI50 readings.
tested on: OVCAR-4 ovarian; assay: NCI tumour cell line growth inhibition, 48 h

Guide cases for GI50, answers given:
# COMPOUND, GI50
records = [
    ("COC(=O)c1ccc2c(c1)C(=O)c1c-2n(C)c(=O)c2cc(OC)c(OC)cc12", "> 50 µM"),
    ("CNc1cc2nc3cc(NC)c(C)cc3cc2cc1C", "1.03 µM"),
]

Req: Any idea what GI50 came out for O=C(NNc1ccc(F)cc1)C1CCC(CNS(=O)(=O)c2ccc(Cl)c(Cl)c2)CC1 (centres undefined) on OVCAR-4 ovarian?
Resp: 9.02 µM

Req: Find GI50 (OVCAR-4 ovarian) for the entry CCCCCCCCCCCCCCCC(=O)N[C@H](/C=C/[C@H](O)CCCCCCCCCCCCC)CO
Resp: > 100 µM

---

test system: UACC-62 melanoma; assay: NCI tumour cell line growth inhibition, 48 h
Values of TGI greater than or equal to 2000 nM map to met; values below map to not met.

# MOLECULE, ASSIGNED_LABEL
measured = [
    ("CC(=O)Nc1ccc(-c2nc3ccccc3s2)cc1C", "met"),
]

Req: Does TGI meet or surpass 2000 nM for CCCCCCCCCCC/C=C\C[C@H](O)C/C=C1/C(=O)C=C[C@@H]1C/C=C\CCCC(=O)OC ?
Resp: not met

Req: Has COC1=CC(=O)c2c(cc(COP(=O)(OCC3OC(n4cc(F)c(=O)[nH]c4=O)CC3O)N(C)CCCCCl)n2C)C1=O (centres undefined) a recorded TGI greater than or equal to 2000 nM?
Resp: not met

Req: For this molecule, is measured TGI 2000 nM or higher? C=C1CCC2C3(C)COC(c4c(OC)cccc4OC)OC3CCC2(C)C1C/C=C1/C(=O)OCC1O (centres undefined)
Resp: met

---

tested on: EKVX NSCLC; assay: NCI tumour cell line growth inhibition, 48 h
TEST_READOUT: TGI (µM)
Note: unit µM is implicit; provide only the numeric part.

# COMPOUND, TGI [µM]
measured = [
    ("Cc1cc(C)nc(SCC(=O)OC2CC(C)CCC2C(C)C)n1 (stereo not given)", 39.3),
    ("c1ccc(N=c2nc(N3CCOCC3)ss2)cc1", 36.4),
    ("COc1cc2oc(-c3ccc(O)cc3O)c(CC=C(C)C)c(=O)c2c(O)c1/C=C/C(C)C", 15.3),
    ("C/C=C(/CCC1NCCC2c3ccccc3NC12)[Si](C)(C)C (stereo not given)", 27.4),
]

Req: Request: TGI, test system EKVX NSCLC, entry COC(=O)C[CH2][Ge]([CH3])([CH3])[S]c1ccccc1
Resp: 86.4
